measurementNotes: nonselective antagonists in TAAR1 counter-screen cells, counter-screen for hTAAR1 antagonist project, cell-based, fluorescence, calcium (AID 651780);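 further: CHO-Ga16 host cells stimulated with ATP at an EC80 level; 0% = agonist EC80 plus vehicle and 100% = vehicle without agonist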
conditionDetails: counterscreen cell line, antagonist mode, at 3 µM, hits give high values
The whole screen tested about 2,400 compounds, of which about 1,800 (75%) were called active. The set was probably picked from earlier hits. These entries were drawn from the full list.
measure: inhibition (%)
Express the result in % but write the number alone.

**Query** What value of measured inhibition is listed for CSC(=S)N/N=C/c1c[nH]c2ccccc12 ?
**Result** 19.5

**Query** What value of measured inhibition is listed for C=CCC[C@@H](Cc1ccc(F)cc1)C(=O)O[C@H](CNC(=O)[C@H](CC=C)CC(=O)N(CCO)Cc1ccccc1)c1ccccc1 ?
**Result** 39.2

**Query** What value of measured inhibition is listed for CSc1nc(-c2ccccc2)nc(C(Cl)Cl)n1 ?
**Result** -4.34

**Query** What value of measured inhibition is listed for COc1ccc(S(=O)(=O)N(CC(=O)NCc2ccco2)c2ccc(F)cc2)cc1 ?
**Result** 19.3

**Query** What value of measured inhibition is listed for Nc1nonc1-n1nnc(C(=O)N/N=C/c2c[nH]c3ccccc23)c1-c1ccccc1 ?
**Result** 29.3

**Query** What value of measured inhibition is listed for COc1ccc(N(CC(=O)N/N=C/c2cccs2)S(=O)(=O)c2ccc(OC)c(OC)c2)cc1 ?
**Result** 25.2

**Query** What value of measured inhibition is listed for CC(=O)n1cc([C@H]2C=C(C(=O)N3CCOCC3)O[C@@H](OCc3ccc(CO)cc3)C2)c2ccccc21 ?
**Result** 24.4

**Query** What value of measured inhibition is listed for C=CCC[C@H](Cc1ccc(F)cc1)C(=O)OC[C@H](C)NC(=O)[C@H](CC=C)CC(=O)N(CCO)Cc1ccccc1 ?
**Result** 27.6

**Query** What value of measured inhibition is listed for COc1ccc(-c2cc(C(=O)N(C)Cc3ccc(OC)c(OC)c3OC)c3ccccc3n2)cc1OC ?
**Result** 30.9
